experiment: Cytotoxicity against C57BL/6 mouse BV-2 cells assessed as survival rate at 30 uM incubated for 24 hrs by MTT assay relative to control; format: toxicity, cell-based; conditions: read-out: Survival
property: viability at 24 h, 30 µM

Here are 5 compounds together with their reported answers.
CCN1C[C@]2(OC(=O)c3ccccc3NC(=O)c3ccc(OC)cc3)CC[C@H](OC)[C@]34C1[C@@H](C[C@H]23)[C@@]1(O)C[C@H](OC)[C@H]2C[C@@H]4[C@]1(O)[C@H]2OC 100%
CCN1C[C@]2(OC(=O)c3ccccc3NC(=O)C(C)C)CC[C@H](OC)[C@]34C1[C@@H](C[C@H]23)[C@@]1(O)C[C@H](OC)[C@H]2C[C@@H]4[C@]1(O)[C@H]2OC 105%
CCN1C[C@]2(OC(=O)c3ccccc3NC(=O)S(=O)(=O)c3ccccc3C#N)CC[C@H](OC)[C@]34C1[C@@H](C[C@H]23)[C@@]1(O)C[C@H](OC)[C@H]2C[C@@H]4[C@]1(O)[C@H]2OC 101%
CCN1C[C@]2(COC(=O)c3ccccc3NS(=O)(=O)c3ccc(Br)s3)CC[C@H](OC)[C@]34C1[C@@H](C[C@H]23)[C@@]1(O)C[C@H](OC)[C@H]2C[C@@H]4[C@]1(O)[C@H]2O 104%
CCN1C[C@]2(OC(=O)c3ccccc3NC(=O)c3ccccc3Cl)CC[C@H](OC)[C@]34C1[C@@H](C[C@H]23)[C@@]1(O)C[C@H](OC)[C@H]2C[C@@H]4[C@]1(O)[C@H]2OC 104%

Look at this compound and give its reported viability at 24 h, 30 µM. `CCCCOC(=O)c1ccccc1NS(=O)(=O)c1cccc(F)c1`
106%

Look at this compound and give its reported viability at 24 h, 30 µM. `CCN1C[C@]2(OC(=O)c3ccccc3NC(=O)S(=O)(=O)c3ccc(OC)cc3)CC[C@H](OC)[C@]34C1[C@@H](C[C@H]23)[C@@]1(O)C[C@H](OC)[C@H]2C[C@@H]4[C@]1(O)[C@H]2OC`
92.4%

Look at this compound and give its reported viability at 24 h, 30 µM. `CCCCOC(=O)c1ccccc1NC(=O)c1ccc(CC)cc1`
103%

Look at this compound and give its reported viability at 24 h, 30 µM. `CCN1C[C@]2(OC(=O)c3ccccc3NC(=O)c3ccc(Cl)cc3)CC[C@H](OC)[C@]34C1[C@@H](C[C@H]23)[C@@]1(O)C[C@H](OC)[C@H]2C[C@@H]4[C@]1(O)[C@H]2OC`
105%

Look at this compound and give its reported viability at 24 h, 30 µM. `CCN1C[C@]2(OC(=O)c3ccccc3NC(=O)S(=O)(=O)c3ccccc3F)CC[C@H](OC)[C@]34C1[C@@H](C[C@H]23)[C@@]1(O)C[C@H](OC)[C@H]2C[C@@H]4[C@]1(O)[C@H]2OC`
106%

Look at this compound and give its reported viability at 24 h, 30 µM. `CCN1C[C@]2(OC(=O)c3ccccc3NC(=O)S(=O)(=O)c3cccc([N+](=O)[O-])c3)CC[C@H](OC)[C@]34C1[C@@H](C[C@H]23)[C@@]1(O)C[C@H](OC)[C@H]2C[C@@H]4[C@]1(O)[C@H]2OC`
106%

* * *

experiment: Cytotoxicity against C57BL/6 mouse BV-2 cells assessed as survival rate at 30 uM incubated for 24 hrs by MTT assay relative to control; format: toxicity, cell-based; details: read-out: Survival
Below: a set of entries, each annotated with reported viability at 24 h, 30 µM.
Expressed in %, but write only the number.

Here are 4 compounds together with their reported answers.
CCCc1ccc(S(=O)(=O)C(=O)Nc2ccccc2C(=O)O[C@@]23CC[C@H](OC)[C@]45C([C@@H](C[C@H]24)[C@@]2(O)C[C@H](OC)[C@H]4C[C@@H]5[C@]2(O)[C@H]4OC)N(CC)C3)cc1 92.3
CCN1C[C@]2(OC(=O)c3ccccc3NC(=O)S(=O)(=O)c3ccc(Cl)nc3)CC[C@H](OC)[C@]34C1[C@@H](C[C@H]23)[C@@]1(O)C[C@H](OC)[C@H]2C[C@@H]4[C@]1(O)[C@H]2OC 104
CCN1C[C@]2(OC(=O)c3ccccc3NC(=O)C3CC3)CC[C@H](OC)[C@]34C1[C@@H](C[C@H]23)[C@@]1(O)C[C@H](OC)[C@H]2C[C@@H]4[C@]1(O)[C@H]2OC 104
CCN1C[C@]2(OC(=O)c3ccccc3NC(=O)c3cccc(Cl)c3)CC[C@H](OC)[C@]34C1[C@@H](C[C@H]23)[C@@]1(O)C[C@H](OC)[C@H]2C[C@@H]4[C@]1(O)[C@H]2OC 104

Here's the next entry for you.
Look at this compound and give its reported viability at 24 h, 30 µM. `CCN1C[C@]2(OC(=O)c3ccccc3NC(=O)S(=O)(=O)c3cccc(F)c3)CC[C@H](OC)[C@]34C1[C@@H](C[C@H]23)[C@@]1(O)C[C@H](OC)[C@H]2C[C@@H]4[C@]1(O)[C@H]2OC`
107

Recorded values, source ChEMBL document CHEMBL6078668.
